Below, each of the variants is paired with its reported normalized RNA/DNA level with ligand (log10) value.
B1: library; a variant is named by its letters at N, in order (parent)
chain: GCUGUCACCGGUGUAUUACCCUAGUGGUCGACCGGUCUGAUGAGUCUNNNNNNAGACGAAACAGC

Variants of: B1
EXPERIMENTAL PROTOCOL: normalized RNA/DNA level with ligand (relative to sTRSVctl = 100) (log10 (% of sTRSVctl)); ligand: hypoxanthine (xanthine aptamer); higher = less ribozyme self-cleavage, higher mRNA level
RECORDED CONDITIONS: ligand concentration (+) RNA-Seq: 5 mM, HEK293T, reporter: mCherry (pCS4076), ligand present: yes
RECORDED METRIC: normalized RNA/DNA level with ligand (log10)

MUTATION CODE: UACUAG
QUANTITATIVE RESULT: 1.91
//
MUTATION CODE: GUCACC
QUANTITATIVE RESULT: 1.92
//
MUTATION CODE: UCUAAU
QUANTITATIVE RESULT: 1.92
//
MUTATION CODE: GGUGUA
QUANTITATIVE RESULT: 1.91
//
MUTATION CODE: AGGUAG
QUANTITATIVE RESULT: 1.73
//
MUTATION CODE: GCACUC
QUANTITATIVE RESULT: 1.94
//
MUTATION CODE: CUUCGA
QUANTITATIVE RESULT: 2.01
//
MUTATION CODE: GACUAA
QUANTITATIVE RESULT: 1.89
//
MUTATION CODE: GCAUGA
QUANTITATIVE RESULT: 1.94
//
MUTATION CODE: UUUGAA
QUANTITATIVE RESULT: 1.9
//
MUTATION CODE: AGUUCA
QUANTITATIVE RESULT: 1.91
//
MUTATION CODE: CCCAAU
QUANTITATIVE RESULT: 1.93
//
MUTATION CODE: GUGUUC
QUANTITATIVE RESULT: 1.91
//
MUTATION CODE: GUGCUC
QUANTITATIVE RESULT: 1.91
//
MUTATION CODE: CGGGUG
QUANTITATIVE RESULT: 1.89
//
MUTATION CODE: GCAUCC
QUANTITATIVE RESULT: 1.86
//
MUTATION CODE: GAUUAG
QUANTITATIVE RESULT: 1.86
//
MUTATION CODE: AUCCCU
QUANTITATIVE RESULT: 1.97
//
MUTATION CODE: CGAGGG
QUANTITATIVE RESULT: 1.8
//
MUTATION CODE: CAUCAU
QUANTITATIVE RESULT: 1.92
//
MUTATION CODE: CGGUUU
QUANTITATIVE RESULT: 1.94
//
MUTATION CODE: UACGUG
QUANTITATIVE RESULT: 1.86
//
MUTATION CODE: GGGGCA
QUANTITATIVE RESULT: 1.94
//
MUTATION CODE: ACCUAA
QUANTITATIVE RESULT: 1.94
//
MUTATION CODE: GGUGGA
QUANTITATIVE RESULT: 1.95
//
MUTATION CODE: AUAAAA
QUANTITATIVE RESULT: 1.88
//
MUTATION CODE: AUGAAC
QUANTITATIVE RESULT: 1.9
//
MUTATION CODE: UACAUU
QUANTITATIVE RESULT: 1.94
//
MUTATION CODE: AACAGC
QUANTITATIVE RESULT: 1.94
//
MUTATION CODE: AUGGUC
QUANTITATIVE RESULT: 2
//
MUTATION CODE: GCUUGG
QUANTITATIVE RESULT: 1.83
//
MUTATION CODE: UGAGCU
QUANTITATIVE RESULT: 1.92
//
MUTATION CODE: UGAGCC
QUANTITATIVE RESULT: 2
//
MUTATION CODE: GUAGAC
QUANTITATIVE RESULT: 1.89
//
MUTATION CODE: GGGCCG
QUANTITATIVE RESULT: 1.98
//
MUTATION CODE: GACUCG
QUANTITATIVE RESULT: 1.86
//
MUTATION CODE: ACGCAA
QUANTITATIVE RESULT: 1.88
//
MUTATION CODE: AUGACA
QUANTITATIVE RESULT: 1.91
//
MUTATION CODE: CAAAGU
QUANTITATIVE RESULT: 1.89
//
MUTATION CODE: CGCAAU
QUANTITATIVE RESULT: 1.94
//
MUTATION CODE: GUAGUA
QUANTITATIVE RESULT: 1.9
//
MUTATION CODE: GCUCGU
QUANTITATIVE RESULT: 1.96
//
MUTATION CODE: UUCUGU
QUANTITATIVE RESULT: 1.95
//
MUTATION CODE: UUCGCA
QUANTITATIVE RESULT: 1.95
//
MUTATION CODE: AUACAU
QUANTITATIVE RESULT: 1.91
//
MUTATION CODE: GUAUAU
QUANTITATIVE RESULT: 1.84
//
MUTATION CODE: AAAAGC
QUANTITATIVE RESULT: 1.9
//
MUTATION CODE: UUUCUC
QUANTITATIVE RESULT: 1.99
//
MUTATION CODE: AGCCAU
QUANTITATIVE RESULT: 1.92
//
MUTATION CODE: AGUGCU
QUANTITATIVE RESULT: 2
//
MUTATION CODE: GGCGAC
QUANTITATIVE RESULT: 1.93
//
MUTATION CODE: GGUAUA
QUANTITATIVE RESULT: 1.92
//
MUTATION CODE: UCCGUU
QUANTITATIVE RESULT: 1.95
//
MUTATION CODE: AGAGUG
QUANTITATIVE RESULT: 1.82
//
MUTATION CODE: AAUCUA
QUANTITATIVE RESULT: 1.92
